All values here come from patent US20220105093A1.

protocol-summary: In vivo pharmacokinetics in plasma after oral gavage
particulars: mouse; Compound A in plasma, single PO dose 60.00 mg/kg, male CD-1 mice, single agent or with enzalutamide; read-out: T½ (converted)
value-kind: half-life (h)

1. CC(C)(c1ccc(OCc2ccnc(NS(C)(=O)=O)n2)cc1)c1cc(Cl)c(OCCCl)c(C#N)c1    5.4

* * *

protocol-summary: In vivo pharmacokinetics in plasma after oral gavage
particulars: mouse; enzalutamide in plasma, single PO dose 15.0 mg/kg, male CD-1 mice, single agent or with Compound A
value-kind: AUC(0-t) (µg·h/mL)

1) CNC(=O)c1ccc(N2C(=S)N(c3ccc(C#N)c(C(F)(F)F)c3)C(=O)C2(C)C)cc1F [Enzalutamide, enzalutamide, reference compound]    388
